Experiment: Pharmacokinetic experiment, single intragastric administration, plasma by HPLC-UV
Assay type: in vivo, SD rats
Details: SD, rat, plasma, po, plasma, Group B (CUR 200 mg kg^−1 and PIP 150 mg kg^−1 oral), 20 min; read-out: Mean concentrations ±sd, DHC
Protocol: An Agilent 1200 HPLC system was used. […] The flow rate was set at 1 ml min^−1 and detection wavelength was 420, 340 and 323 nm. Injection volume was 5 μL. The column temperature was set at 30°C. Plasma or brain homogenate of SD rats was taken 50 μL, internal standard solution of 50 μL and protein precipitator of 150 μL were added. After eddy oscillation for 3 min, supernatant was separated by centrifugation. […]
Observed Property: concentration at 20 min
Answer with the figure and its unit, nothing else.

// COc1cc(/C=C/C(=O)CC(=O)CCc2ccc(O)c(OC)c2)ccc1O [DHC, Dihydrocurcumin] : concentration at 20 min value = 7500 ng/mL

====

Assay: Pharmacokinetic experiment, single intragastric administration, plasma by HPLC-UV
Type: in vivo, SD rats
Conditions: SD (Sprague-Dawley), rat, plasma, po, 200 mg/kg, Group B: CUR 200 mg kg^−1 and PIP 150 mg kg^−1 oral; read-out: Cmax of DHC
Description: An Agilent 1200 HPLC system was used. […] The flow rate was set at 1 ml min^−1 and detection wavelength was 420, 340 and 323 nm. Injection volume was 5 μL. The column temperature was set at 30°C. Plasma or brain homogenate of SD rats was taken 50 μL, internal standard solution of 50 μL and protein precipitator of 150 μL were added. After eddy oscillation for 3 min, supernatant was separated by centrifugation. […]
Observed Property: Cmax

// COc1cc(/C=C/C(=O)CC(=O)CCc2ccc(O)c(OC)c2)ccc1O [DHC, Dihydrocurcumin] : Cmax value = 7500 ng/mL

====

Test: Pharmacokinetic experiment, single intragastric administration, plasma by HPLC-UV
Assay type: in vivo, SD rats
Details: SD (Sprague-Dawley), rat, plasma, po, 200 mg/kg, Group C: CUR 200 mg kg^−1 and ILE 150 mg kg^−1 oral; read-out: AUC(0-tn) of DHC (converted)
Description: An Agilent 1200 HPLC system was used. […] The flow rate was set at 1 ml min^−1 and detection wavelength was 420, 340 and 323 nm. Injection volume was 5 μL. The column temperature was set at 30°C. Plasma or brain homogenate of SD rats was taken 50 μL, internal standard solution of 50 μL and protein precipitator of 150 μL were added. After eddy oscillation for 3 min, supernatant was separated by centrifugation. […]
Observed Property: AUC (ng·h/mL)
Kindly answer with a numeric value in ng·h/mL, unit omitted.

// COc1cc(/C=C/C(=O)CC(=O)CCc2ccc(O)c(OC)c2)ccc1O [DHC, Dihydrocurcumin] : AUC value = 16800

====

experiment: Pharmacokinetic experiment, single intragastric administration, plasma by HPLC-UV; format: in vivo, SD rats; details: SD (Sprague-Dawley), rat, plasma, po, plasma, Group B (CUR 200 mg kg^−1 and PIP 150 mg kg^−1 oral), 150 min; read-out: Mean concentrations ±sd, DHC
Observed Property: concentration at 150 min
Answer with the figure and its unit, nothing else.

// COc1cc(/C=C/C(=O)CC(=O)CCc2ccc(O)c(OC)c2)ccc1O [DHC, Dihydrocurcumin] : concentration at 150 min value = 1000 ng/mL
